Sourced from patent US20100152261A1

STUDY TARGET: muscarinic M3 receptor (Cavia porcellus)
Construct: trachea was excised, and cut at every two tracheal cartilages to prepare tissue specimens; from tissue; host or cells: isolated guinea pig trachea (male Hartley)
ASSAY TEXT: Muscarinic M3 antagonistic action in isolated guinea pig trachea (carbachol-induced contraction, Schild method)
Type: cell-based
PARTICULARS: pA2 Trachea M3, isolated guinea pig trachea, compound applied 15 minutes before carbachol
PROPERTY NAME: log10(Kb) (log10 of the value in nM)
Parameter value (number): base-10 log of Kb in nM.

Some entries whose results are on file:
# MOLECULE, REPORTED RESULT
data = [
    ("CC(=O)C[n+]1ccn([C@@H]2CC[C@H](C(C(N)=O)(c3ccccc3)c3ccccc3)C2)c1C", -0.10),
    ("CC1=[N+](C)CCN1[C@H]1CC[C@@H](C(C(N)=O)(c2ccccc2)c2ccccc2)C1 [Example 58]", 0.50),
    ("CCOCC[n+]1ccn([C@H]2CC[C@@H](C(C(N)=O)(c3ccccc3)c3ccccc3)C2)c1C (relative stereo)", 0.20),
    ("Cc1n([C@@H]2CC[C@H](C(C(N)=O)(c3ccccc3)c3ccccc3)C2)cc[n+]1Cc1ccccc1", -1.00),
    ("CC1=[N+](C)CCN1[C@@H]1CC[C@H](C(C(N)=O)(c2ccccc2)c2ccccc2)C1", 0.10),
]

// for each molecule below, give its log10(Kb)
1. Cc1n([C@H]2CC[C@@H](C(C(N)=O)(c3ccccc3)c3ccccc3)C2)cc[n+]1C(F)F [Example 81]
2. Cc1n([C@@H]2CC[C@H](C(C(N)=O)(c3ccccc3)c3ccccc3)C2)cc[n+]1C(F)F
3. C[n+]1ccn([C@H]2CC[C@H](C(C(N)=O)(c3ccccc3)c3ccccc3)C2)c1 (relative stereo)
4. C[n+]1ccn([C@H]2CC[C@@H](C(C(N)=O)(c3ccccc3)c3ccccc3)C2)c1 (relative stereo)
5. Cc1n([C@H]2CC[C@H](C(C(N)=O)(c3ccccc3)c3ccccc3)C2)cc[n+]1Cc1ccccc1 (single isomer, unassigned) [Example 98]

A:
0.00
-0.40
-0.10
0.40
-0.40

For each of the molecules below, note its log10(Kb).
1. CC(=O)C[n+]1ccn([C@H]2CC[C@H](C(C(N)=O)(c3ccccc3)c3ccccc3)C2)c1C (relative stereo)
2. C[n+]1cn([C@H]2CC[C@@H](C(C(N)=O)(c3ccccc3)c3ccccc3)C2)cn1 (relative stereo)

A:
1. 0.10
2. -0.10

For every item below, please supply its log10(Kb).
1. CC#CC[n+]1ccn([C@H]2CC[C@@H](C(C(N)=O)(c3ccccc3)c3ccccc3)C2)c1C
2. Cc1n([C@H]2CC[C@@H](C(C(N)=O)(c3ccccc3)c3ccccc3)C2)cc[n+]1CCCO (relative stereo)

A:
-0.10
0.00

* * *

Task for the reader: assign each of the following compounds its reported pA2 Trachea M3.
STUDY TARGET: muscarinic M3 receptor (Cavia porcellus, UniProt H0W1Z3)
Construct: trachea was excised, and cut at every two tracheal cartilages to prepare tissue specimens; from tissue; host or cells: isolated guinea pig trachea (male Hartley)
Sequence (H0W1Z3 1-590): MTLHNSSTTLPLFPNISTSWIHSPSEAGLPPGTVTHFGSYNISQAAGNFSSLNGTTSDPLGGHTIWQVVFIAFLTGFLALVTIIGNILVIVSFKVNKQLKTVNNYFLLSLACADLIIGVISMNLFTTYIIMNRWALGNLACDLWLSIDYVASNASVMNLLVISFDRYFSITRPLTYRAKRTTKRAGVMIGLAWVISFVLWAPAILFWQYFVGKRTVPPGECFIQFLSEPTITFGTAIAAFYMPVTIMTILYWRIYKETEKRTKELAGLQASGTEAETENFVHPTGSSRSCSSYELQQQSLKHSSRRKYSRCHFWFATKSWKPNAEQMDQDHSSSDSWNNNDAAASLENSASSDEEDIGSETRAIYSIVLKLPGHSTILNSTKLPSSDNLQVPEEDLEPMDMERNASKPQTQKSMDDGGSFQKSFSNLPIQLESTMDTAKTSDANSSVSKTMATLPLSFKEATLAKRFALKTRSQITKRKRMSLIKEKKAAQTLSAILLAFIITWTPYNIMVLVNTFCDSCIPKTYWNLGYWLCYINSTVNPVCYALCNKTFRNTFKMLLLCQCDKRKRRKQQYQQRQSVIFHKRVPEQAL
ASSAY TEXT: Muscarinic M3 antagonistic action in isolated guinea pig trachea (carbachol-induced contraction, Schild method)
Format: cell-based
PARTICULARS: isolated guinea pig trachea, compound applied 15 minutes before carbachol

Worked cases, answers included:
# COMPOUND, pA2 Trachea M3
rows = [
    ("C=C(CC)[n+]1ccn([C@H]2CC[C@@H](C(C(N)=O)(c3ccccc3)c3ccccc3)C2)c1C.[Br-] [Example 78]", 9.2),
    ("Cc1n(CC2CO2)cc[n+]1[C@H]1CC[C@@H](C(C(N)=O)(c2ccccc2)c2ccccc2)C1.[Br-] (relative stereo) [Example 22]", 9),
    ("Cc1n(Cc2ccc(F)cc2)cc[n+]1[C@H]1CC[C@@H](C(C(N)=O)(c2ccccc2)c2ccccc2)C1.[Br-] (relative stereo) [Example 7]", 9.6),
    ("Cc1n([C@H]2CC[C@@H](C(C(N)=O)(c3ccccc3)c3ccccc3)C2)cc[n+]1CCO.[Br-] [Example 84]", 8.2),
]

// switching to the query compound
Q: Please report the recorded pA2 Trachea M3 for Cc1n([C@H]2CC[C@@H](C(C(N)=O)(c3ccccc3)c3ccccc3)C2)cc[n+]1CC[C@H]1CO1.[Br-] (relative stereo) [Example 36] .
A: 9

* * *

Test system: Bronchoconstriction in Guinea Pigs (induced with acetylcholine)
ASSAY TEXT: Effect on bronchoconstriction in guinea pigs (via inhalation administration), Konzett method
Format: in vivo
PARTICULARS: Cavia porcellus, iv; guinea pig, intratracheal administration 10 μL g/head, 24 hours after administration, acetylcholine 4 μg/kg i.v., versus control group; read-out: Percent of inhibition of bronchoconstriction (%)
# inhibition in vivo at 0.01 mg >= 80% gives class 1, anything below gives class 0

Examples from the recorded data:
# COMPOUND, ANSWER LABEL
data = [
    ("COCC[n+]1ccn([C@@H]2CC[C@H](C(C(N)=O)(c3ccccc3)c3ccccc3)C2)c1C", "class 1"),
    ("Cc1cccc(C[n+]2ccn([C@H]3CC[C@@H](C(C(N)=O)(c4ccccc4)c4ccccc4)C3)c2C)c1 (relative stereo)", "class 1"),
    ("Cc1n([C@H]2CC[C@@H](C(C(N)=O)(c3ccccc3)c3ccccc3)C2)cc[n+]1CC1CCC1 (relative stereo)", "class 1"),
]

Proceed to the following item.
Q: Does the reported inhibition in vivo at 0.01 mg for C[n+]1ccn([C@H]2CC[C@H](C(C(N)=O)(c3ccccc3)c3ccccc3)C2)c1 (relative stereo) fall at or above the 80% mark?
A: class 1

* * *

STUDY TARGET: muscarinic M2 receptor (Cavia porcellus, UniProt H0VRN8)
Construct: left atria were excised to prepare tissue specimens; from tissue; host or cells: isolated guinea pig left atrium (male Hartley)
ASSAY TEXT: Muscarinic M2 antagonistic action in isolated guinea pig left atrium (carbachol-induced relaxation, Schild method)
Assay type: cell-based
PARTICULARS: pA2 Left atrium M2, isolated guinea pig left atrium, compound applied 30 minutes before carbachol
Method: Muscarinic M2 Antagonistic Action in Isolated Guinea Pig Left Atrium […] Each tissue specimen was kept warm at 37° C., suspended with a resting tension of 0.5 g in a 5-mL Magnus bath filled with a Krebs carbonate buffer bubbled with 95% O2/5% CO2. Then, contraction evoked by field electrical stimulation (4 Hz, 2 msec, 1.5×threshold potential) was measured. […]
Task for the reader: assign each of the following compounds its reported Kb.
One number for each entry, in nM.

Observe how each entry below is paired with its result.
# COMPOUND, PROPERTY NAME, REPORTED RESULT
measured = [
    ("Cc1n([C@H]2CC[C@@H](C(C(N)=O)(c3ccccc3)c3ccccc3)C2)cc[n+]1CCCO (relative stereo)", "Kb", 31.6),
    ("Cc1n([C@H]2CC[C@H](C(C(N)=O)(c3ccccc3)c3ccccc3)C2)cc[n+]1Cc1ccccc1 (single isomer, unassigned) [Example 97]", "Kb", 3.98),
    ("Cc1n([C@H]2CC[C@@H](C(C(N)=O)(c3ccccc3)c3ccccc3)C2)cc[n+]1Cc1ccc(F)cc1", "Kb", 31.6),
    ("CC(=O)C[n+]1ccn([C@@H]2CC[C@H](C(C(N)=O)(c3ccccc3)c3ccccc3)C2)c1C", "Kb", 316),
]

Give measured Kb for every item shown.
1. CC#CC[n+]1ccn([C@H]2CC[C@@H](C(C(N)=O)(c3ccccc3)c3ccccc3)C2)c1C
2. C[n+]1cn([C@H]2CC[C@@H](C(C(N)=O)(c3ccccc3)c3ccccc3)C2)cn1 (relative stereo)

A:
1: 63.1; 2: 25.1

Please state, for each entry, its recorded Kb.
1. CC(=O)OCCC[n+]1ccn([C@H]2CC[C@H](C(C(N)=O)(c3ccccc3)c3ccccc3)C2)c1C (relative stereo)
2. Cc1n([C@H]2CC[C@H](C(C#N)(c3ccccc3)c3ccccc3)C2)cc[n+]1Cc1ccccc1 (relative stereo)

A:
1. 158
2. 50.1

For every item in the list below, what is its measured Kb?
1. Cc1n([C@@H]2CC[C@H](C(C(N)=O)(c3ccccc3)c3ccccc3)C2)cc[n+]1C(F)F
2. NC(=O)C(c1ccccc1)(c1ccccc1)[C@@H]1CC[C@H](n2c[n+](Cc3ccccc3)cn2)C1 (relative stereo)
3. COCC[n+]1cn([C@H]2CC[C@@H](C(C(N)=O)(c3ccccc3)c3ccccc3)C2)cn1 (relative stereo)

A:
1: 12.6; 2: 39.8; 3: 31.6

Q: Given Cc1cccc(C[n+]2ccn([C@H]3CC[C@@H](C(C(N)=O)(c4ccccc4)c4ccccc4)C3)c2C)c1 (relative stereo) , state its recorded Kb.
A: 10

* * *

STUDY TARGET: muscarinic M2 receptor (Cavia porcellus)
Construct: left atria were excised to prepare tissue specimens; from tissue; host or cells: isolated guinea pig left atrium (male Hartley)
Sequence (H0VRN8 1-466): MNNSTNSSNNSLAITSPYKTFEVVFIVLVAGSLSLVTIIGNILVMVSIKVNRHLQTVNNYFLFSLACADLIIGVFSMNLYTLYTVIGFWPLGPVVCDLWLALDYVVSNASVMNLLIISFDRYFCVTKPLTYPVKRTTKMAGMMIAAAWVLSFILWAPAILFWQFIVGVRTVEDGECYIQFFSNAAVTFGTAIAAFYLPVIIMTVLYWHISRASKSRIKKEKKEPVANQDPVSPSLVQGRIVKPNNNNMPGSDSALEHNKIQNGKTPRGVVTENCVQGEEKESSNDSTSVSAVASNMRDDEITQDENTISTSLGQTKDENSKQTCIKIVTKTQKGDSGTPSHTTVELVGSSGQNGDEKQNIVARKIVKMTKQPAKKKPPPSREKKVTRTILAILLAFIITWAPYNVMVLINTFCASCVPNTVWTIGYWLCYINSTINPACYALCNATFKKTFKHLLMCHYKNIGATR
ASSAY TEXT: Muscarinic M2 antagonistic action in isolated guinea pig left atrium (carbachol-induced relaxation, Schild method)
Assay type: cell-based
PARTICULARS: isolated guinea pig left atrium, compound applied 30 minutes before carbachol, read-out: pA2 Left atrium M2 (converted)
Protocol: Muscarinic M2 Antagonistic Action in Isolated Guinea Pig Left Atrium […] Each tissue specimen was kept warm at 37° C., suspended with a resting tension of 0.5 g in a 5-mL Magnus bath filled with a Krebs carbonate buffer bubbled with 95% O2/5% CO2. Then, contraction evoked by field electrical stimulation (4 Hz, 2 msec, 1.5×threshold potential) was measured. […]
Hi there, I'd appreciate the recorded Kb for every entry that follows.
One number for each entry, in nM.

Worked examples, 3 molecules total:
# MOLECULE, REPORTED RESULT
records = [
    ("Cc1nccn1[C@@H]1CC[C@H](C(C(N)=O)(c2ccccc2)c2ccccc2)C1 (relative stereo) [Reference Example 5, reference compound]", 50.1),
    ("Cc1n([C@H]2CC[C@@H](C(C(N)=O)(c3ccccc3)c3ccccc3)C2)cc[n+]1Cc1ccccc1", 5.01),
    ("COCC[n+]1ccn([C@@H]2CC[C@H](C(C(N)=O)(c3ccccc3)c3ccccc3)C2)c1C", 6.31),
]

State the recorded Kb for every item in the following list.
1. CC1=NCCN1[C@@H]1CC[C@H](C(C(N)=O)(c2ccccc2)c2ccccc2)C1 (relative stereo) [Reference Example 13, reference compound]
2. Cc1n([C@H]2CC[C@@H](C(C(N)=O)(c3ccccc3)c3ccccc3)C2)cc[n+]1C
3. CC1=[N+](C)CCN1[C@@H]1CC[C@H](C(C(N)=O)(c2ccccc2)c2ccccc2)C1
4. COCC[n+]1ccn([C@H]2CC[C@@H](C(C(N)=O)(c3ccccc3)c3ccccc3)C2)c1C

A:
1: 79.4; 2: 100; 3: 15.8; 4: 200
